# maps each entry to its EC50
# target.or.test.system: hTLR7 (Homo sapiens)
# Sequence (Q9NYK1 27-1049): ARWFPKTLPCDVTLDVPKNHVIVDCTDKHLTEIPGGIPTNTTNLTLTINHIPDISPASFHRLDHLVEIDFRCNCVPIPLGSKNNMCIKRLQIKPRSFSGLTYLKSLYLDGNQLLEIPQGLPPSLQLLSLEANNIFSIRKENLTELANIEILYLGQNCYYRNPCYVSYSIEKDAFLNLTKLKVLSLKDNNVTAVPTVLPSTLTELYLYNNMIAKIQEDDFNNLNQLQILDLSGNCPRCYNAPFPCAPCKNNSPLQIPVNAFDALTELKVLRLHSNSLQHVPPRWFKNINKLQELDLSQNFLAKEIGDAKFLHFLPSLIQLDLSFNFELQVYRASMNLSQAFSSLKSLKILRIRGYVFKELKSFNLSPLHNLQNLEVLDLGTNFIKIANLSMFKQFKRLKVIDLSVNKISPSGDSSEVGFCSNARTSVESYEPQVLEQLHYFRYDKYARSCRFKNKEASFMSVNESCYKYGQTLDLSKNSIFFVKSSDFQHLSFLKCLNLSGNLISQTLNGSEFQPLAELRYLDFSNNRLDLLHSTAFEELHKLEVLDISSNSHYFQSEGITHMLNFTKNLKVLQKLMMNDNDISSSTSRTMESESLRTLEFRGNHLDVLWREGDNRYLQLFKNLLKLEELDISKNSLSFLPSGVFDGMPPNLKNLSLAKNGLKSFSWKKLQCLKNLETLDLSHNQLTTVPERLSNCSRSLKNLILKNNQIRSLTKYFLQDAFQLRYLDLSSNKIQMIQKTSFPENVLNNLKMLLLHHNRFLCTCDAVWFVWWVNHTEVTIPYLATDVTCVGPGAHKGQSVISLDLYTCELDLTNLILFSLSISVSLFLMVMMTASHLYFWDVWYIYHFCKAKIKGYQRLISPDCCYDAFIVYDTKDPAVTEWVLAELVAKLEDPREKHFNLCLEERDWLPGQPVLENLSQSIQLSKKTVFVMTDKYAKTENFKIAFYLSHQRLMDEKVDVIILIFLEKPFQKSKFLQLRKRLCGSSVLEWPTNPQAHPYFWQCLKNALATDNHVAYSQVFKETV
# method: TLR7 agonist screening protocol in vitro (HEK-Blue-hTLR7 reporter, QUANTI-Blue)
# condition.details: HEK-Blue-hTLR7 cells, 24 hours incubation, alkaline phosphatase OD650
Structures can show the parent of a compound that is named as a salt.

CCC[C@H](C)Oc1nc(N)c2[nH]c(C#N)c(CCCCCN3CCCCC3)c2n1 [Example 2, formate] ... 1 to 100 nM
CCCCOc1nc(N)c2[nH]c(C#N)c(CCCC3CCN(C)CC3)c2n1 [Example 24, formate] ... 1 to 100 nM
CCCCOc1nc(N)c2[nH]c(C#N)c(CCCCC3CCCCN3)c2n1 (stereo not shown) [Example 22, formate] ... 100 to 250 nM
CCCCOc1nc(N)c2[nH]c(C#N)c(CCCCCN3CC4CCC(C3)N4C)c2n1 [Example 21, formate] ... 100 to 250 nM
CCCCOc1nc(N)c2[nH]c(C#N)c(CCCCCN3CCN(C)CC3)c2n1 [Example 6, formate] ... 1 to 100 nM
CCCCOc1nc(N)c2[nH]c(C#N)c(CCCCC3CCCCN3C(=O)NC)c2n1 (stereo not shown) ... 100 to 250 nM

Here is the next item to consider.
Which measured EC50 value corresponds to CCCCOc1nc(N)c2[nH]c(C#N)c(CCCCCN3CCCCC3)c2n1 [Example 1, formate] ?
1 to 100 nM

* * *

# maps each entry to its EC50
# target.or.test.system: hTLR7 (Homo sapiens, UniProt Q9NYK1)
# Sequence (Q9NYK1 27-1049): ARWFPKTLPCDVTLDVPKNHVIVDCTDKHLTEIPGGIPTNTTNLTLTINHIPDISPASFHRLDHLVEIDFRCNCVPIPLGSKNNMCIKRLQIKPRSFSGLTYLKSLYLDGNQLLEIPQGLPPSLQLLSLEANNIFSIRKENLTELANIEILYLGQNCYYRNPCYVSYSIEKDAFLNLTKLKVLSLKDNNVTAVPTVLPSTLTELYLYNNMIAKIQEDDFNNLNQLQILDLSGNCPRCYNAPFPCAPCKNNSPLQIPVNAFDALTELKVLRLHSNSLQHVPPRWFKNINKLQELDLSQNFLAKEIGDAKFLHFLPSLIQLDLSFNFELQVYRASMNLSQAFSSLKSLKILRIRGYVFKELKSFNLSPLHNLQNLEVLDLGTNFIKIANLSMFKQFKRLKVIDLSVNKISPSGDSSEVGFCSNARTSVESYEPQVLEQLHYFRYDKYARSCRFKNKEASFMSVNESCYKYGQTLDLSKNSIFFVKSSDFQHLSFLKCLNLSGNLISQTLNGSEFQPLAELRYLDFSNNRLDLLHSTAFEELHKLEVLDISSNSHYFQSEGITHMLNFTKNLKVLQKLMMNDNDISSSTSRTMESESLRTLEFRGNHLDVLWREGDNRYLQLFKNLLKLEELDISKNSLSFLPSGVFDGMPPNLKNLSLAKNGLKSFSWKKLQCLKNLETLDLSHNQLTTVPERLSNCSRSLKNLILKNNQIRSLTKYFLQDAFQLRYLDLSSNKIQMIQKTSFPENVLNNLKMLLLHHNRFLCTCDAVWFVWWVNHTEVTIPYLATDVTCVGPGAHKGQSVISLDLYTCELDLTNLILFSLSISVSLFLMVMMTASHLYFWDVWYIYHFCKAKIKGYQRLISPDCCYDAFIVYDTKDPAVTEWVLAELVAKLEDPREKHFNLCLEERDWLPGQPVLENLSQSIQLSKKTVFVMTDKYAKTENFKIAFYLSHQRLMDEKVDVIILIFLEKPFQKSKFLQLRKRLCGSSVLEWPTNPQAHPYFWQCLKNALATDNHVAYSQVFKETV
# method: TLR7 agonist screening protocol in vitro (HEK-Blue-hTLR7 reporter, QUANTI-Blue)
# condition.details: HEK-Blue-hTLR7 cells, 24 hours incubation, alkaline phosphatase OD650
Structures can show the parent of a compound that is named as a salt.

Here's what some known entries look like.
CCCCOc1nc(N)c2[nH]c(C#N)c(CCCCCN3CCC[C@@H]3C(N)=O)c2n1 [Example 13] ... 1 to 100 nM
CCCCOc1nc(N)c2[nH]c(C#N)c(CCCCCN3CCOCC3)c2n1 [Example 4] ... 1 to 100 nM
CCCCOc1nc(N)c2[nH]c(C#N)c(CCCCN3CCCCC3)c2n1 [Example 3, formate] ... 1 to 100 nM
CCCCOc1nc(N)c2[nH]c(C#N)c(CCCCCN3CCC(F)(F)CC3)c2n1 [Example 9] ... 100 to 250 nM
CCCCOc1nc(N)c2[nH]c(C#N)c(CCCCCN3CC4CC3CN4C)c2n1 (stereo not shown) [Example 7, formate] ... 250 to 500 nM

Here is the next item to consider.
Which measured EC50 value corresponds to CCCCOc1nc(N)c2[nH]c(C#N)c(CCCCCN3CCCCC3C(N)=O)c2n1 (stereo not shown) [Example 17, hydrochloride] ?
1 to 100 nM

* * *

# maps each entry to its EC50
# target.or.test.system: hTLR7 (Homo sapiens)
# method: TLR7 agonist screening protocol in vitro (HEK-Blue-hTLR7 reporter, QUANTI-Blue)
# condition.details: HEK-Blue-hTLR7 cells, 24 hours incubation, alkaline phosphatase OD650
# Description: Test 1: TLR7 Agonist Screening Protocol In Vitro 1. Preparation for 96-well plate: Compounds are 3 folds serial diluted with DMSO by POD, start from 10 mM, 10 concentrations (column 2 to 11, duplicated), 1 μL DMSO per well. Take 1 μL of 5 mM R848 as positive control (column 12) and 1 μL of DMSO as negative control (column 1). 2. […] 6. After 1 hour, determine alkaline phosphatase levels in 20 μL supernatant by using ELIASA reading at OD650. […]
Where a name gives a salt, the structure may show the parent alone.

Here's what some known entries look like.
CCCCOc1nc(N)c2[nH]c(C#N)c(CCCCCNC(C(N)=O)C(C)C)c2n1 (stereo not shown) [Example 18, hydrochloride] ... 1 to 100 nM
CCCCOc1nc(N)c2[nH]c(C#N)c(CCCCCN3CCCC3C(=O)NCC3CC3)c2n1 (stereo not shown) [Example 16, formate] ... 100 to 250 nM
CCCCOc1nc(N)c2[nH]c(C#N)c(CCCCCN3CCCC3C(=O)N3CCN(C)CC3)c2n1 (stereo not shown) ... 100 to 250 nM
CCCCOc1nc(N)c2[nH]c(C#N)c(CCCCCCN3CCCC3)c2n1 [Example 19, formate] ... 1 to 100 nM
CCCCOc1nc(N)c2[nH]c(C#N)c(CCCCCN3CC4(COC4)C3)c2n1 [Example 5, formate] ... 1 to 100 nM

Which measured EC50 value corresponds to CCCCOc1nc(N)c2[nH]c(C#N)c(CCCCCN3CCCC3C(=O)N(C)C)c2n1 (stereo not shown) ?
1 to 100 nM

Which measured EC50 value corresponds to CCCCOc1nc(N)c2[nH]c(C#N)c(CCCCCN(CC)CC)c2n1 [Example 8, formate] ?
1 to 100 nM

Which measured EC50 value corresponds to CCCCOc1nc(N)c2[nH]c(C#N)c(CCCCCN3CCCC3)c2n1 [Example 20, hydrochloride] ?
1 to 100 nM

Which measured EC50 value corresponds to CCCCOc1nc(N)c2[nH]c(C#N)c(CCCCCN3CCN(C)CC3=O)c2n1 [Example 11, formate] ?
100 to 250 nM

Which measured EC50 value corresponds to CCC[C@H](C)Oc1nc(N)c2[nH]c(=O)n(CCCCCN3CCCCC3)c2n1.Cl [GSK-2245035, reference compound] ?
1 to 100 nM

Cited source: patent US20180148452A1
